- Tested on: HCT-116
- test: Cytotoxicity against human HCT116 cells at 10 uM after 72 hrs by [3H]thymidine incorporation assay
- assay.context: read-out: GI
measurement.label: inhibition of growth at 10 µM (%)
// note: answer is a bare numeric in %

Supply recorded inhibition of growth at 10 µM for "CC(C)C[C@@H]1NC(=O)[C@H](Cc2ccccc2)NC(=O)[C@@H](Cc2ccccc2)NC(=O)[C@@H](CCCCNC(=O)OCc2ccccc2)NC(=O)[C@H](C(C)C)N(C)C1=O" here. 36

Supply recorded inhibition of growth at 10 µM for "CC(C)C[C@@H]1NC(=O)[C@@H](CC(C)C)NC(=O)[C@@H](C(C)C)NC(=O)[C@H](CC(C)C)N(C)C(=O)[C@H](Cc2ccccc2)NC1=O" here. 30

Supply recorded inhibition of growth at 10 µM for "CC(C)C[C@@H]1NC(=O)[C@H](Cc2ccccc2)NC(=O)[C@H](CCCCNC(=O)OC(C)(C)C)NC(=O)[C@H](CC(C)C)NC(=O)[C@@H](C(C)C)NC1=O" here. 9

These measurements were taken from ChEMBL document CHEMBL1240508.
